# PROCEDURE_SUMMARY: Half life in iv dosed Sprague-Dawley rat by LC-MS/MS analysis
# Format: ADME, organism-based
# CONDITION_DETAILS: in vivo
Numbered stars: 1 amine (or outer) side, 2 acyl side, 3 side chain; on linkers, the order of the positions; unused ones are H or OH. Bridge positions count the residues as written; N and C are the ends. Square brackets hold non-standard residues; d marks the D form. Peptide text beside a SMILES is read from it. * marks the point of attachment. Phe(4-Cl) = N[C@@H](Cc1ccc(Cl)cc1)C(=O)O; 2Thi = N[C@@H](Cc1cccs1)C(=O)O; Agmatine = N=C(N)NCCCCN*; X1 = O=C(CCC[*:2])[*:1]; NEt2 = CCN(CC)*
Consider the following compounds and their measured half-life readings.
Express it in min; write the number only.

COMPOUND: CCN(CC)C(=O)[C@@H](CCCNC(=N)N)NC(=O)[C@@H]1CCCN1C(=O)[C@@H]1CSCCCC(=O)N[C@@H](Cc2ccc(Cl)cc2)C(=O)N[C@@H](Cc2cccs2)C(=O)N[C@@H](C(C)C)C(=O)N[C@@H](CC(N)=O)C(=O)N1 ([Phe(4-Cl)][2Thi]VNCP[dR]-NEt2; linker N-5 via X1)
OBSERVED_VALUE: 12

API: the following record is the query input.
What value of measured half-life is listed for CC(C)[C@@H]1NC(=O)[C@H](Cc2cccs2)NC(=O)[C@H](Cc2ccc(Cl)cc2)NC(=O)CCCSC[C@@H](C(=O)N2CCC[C@H]2C(=O)NCCCCNC(=N)N)NC(=O)[C@H](CC(N)=O)NC1=O ([Phe(4-Cl)][2Thi]VNCP-Agmatine; linker N-5 via X1) ? 20
